tested on: Escherichia coli K-12 BW25113; test: relative growth (OD600 normalised to plate interquartile mean) (fraction); higher = less growth inhibition, active = 0.2 or less; details: 50 µM; LB; incubation time: overnight (16-24 h)
Among all 39,000 compounds or so, about 220 (0.56%) showed activity. The full list was thinned out, with actives kept by preference.
Please state which outcome applies, choosing from active, inactive

>  <molecule>
Cc1cc(C)c(NC(=O)[C@@H](N)Cc2ccccc2)c(Cl)c1

>  <qualitative label>
inactive

$$$$
>  <molecule>
CCc1nc2ccc(C(=O)Nc3cccc(OC)c3)cn2c1N(CC)Cc1cccc(Br)c1

>  <qualitative label>
inactive

$$$$

Then there is this molecule:
# outcome recorded in this test, key = CO[C@H]1CN(C)C(=O)c2ccc(NS(C)(=O)=O)cc2OC[C@H](C)N(C(=O)C2CCCCC2)C[C@@H]1C
inactive

----------
system: Escherichia coli K-12 BW25113; test: relative growth (OD600 normalised to plate interquartile mean) (fraction); higher = less growth inhibition, active = 0.2 or less; settings: 50 µM; LB; incubation time: overnight (16-24 h)
Hit rate of the full screen: of about 39,000 compounds, about 220 (0.56%) showed activity. Many of the other results were omitted from the sample, so actives are more common in it than they were.
Select the matching outcome among 1.0 for active, 0.0 for inactive

Study these solved cases before continuing.
>  <chem smiles>
CN(Cc1ccccc1)C(=O)[C@H](Cc1ccc2ccccc2c1)NC(=O)[C@@H]1CCCN1C(=O)Nc1ccccc1[N+](=O)[O-]

>  <qualitative label>
0.0

$$$$
>  <chem smiles>
CCCC[P+](CCCC)(CCCC)Cc1ccc(NC(=O)[C@@H](Cc2ccc3ccccc3c2)N=C(NC2CCCCC2)NC2CCCCC2)cc1

>  <qualitative label>
1.0

$$$$
>  <chem smiles>
CCC(=O)Nc1ccc2ccccc2c1

>  <qualitative label>
0.0

$$$$

Dear all, I need the recorded test outcome for C[C@H](CO)N1C[C@H](C)[C@@H](CN(C)Cc2ccccc2)OCCCC[C@H](C)Oc2ccc(NC(=O)CCC(F)(F)F)cc2C1=O , thank you.
0.0

----------
test system: Escherichia coli K-12 BW25113; test: relative growth (OD600 normalised to plate interquartile mean) (fraction); higher = less growth inhibition, active = 0.2 or less; settings: 50 µM; LB; incubation time: overnight (16-24 h)
About 220 (0.56%) of roughly 39,000 compounds showed activity. Shown is part of a subset that was picked to be rich in actives.
Entries and their relative growth
Give the value as a plain number.

>  <compound>
Cc1noc(C)c1S(=O)(=O)Nc1ccc2c(c1)C(=O)N([C@H](C)CO)C[C@@H](C)[C@@H](CN(C)S(=O)(=O)c1cccs1)O2

>  <relative growth>
0.998

$$$$

Consider the compound C[C@@H]1CN([C@H](C)CO)C(=O)c2cc(NC(=O)Nc3cccc4ccccc34)ccc2O[C@@H]1CN(C)C(=O)NC1CCCCC1 and give its measured relative growth.
1

And C[C@@H]1CN([C@@H](C)CO)C(=O)c2cc(NS(=O)(=O)c3ccc(Cl)cc3)ccc2O[C@@H](C)CCCCO[C@H]1CN(C)Cc1ccncc1 ?
1.01

----------
system: Escherichia coli K-12 BW25113; assay: relative growth (OD600 normalised to plate interquartile mean) (fraction); higher = less growth inhibition, active = 0.2 or less; conditions: 50 µM; LB; incubation time: overnight (16-24 h)
About 220 (0.56%) of roughly 39,000 compounds showed activity. The full list was thinned out, with actives kept by preference.
Label Condition met when relative growth is at or above 1; otherwise label Condition not met.

The examples below pair each entry with its known result.
>  <chem smiles>
NC[C@H]1O[C@H](O[C@H]2[C@H](O)[C@@H](O[C@H]3O[C@H](CO)[C@@H](O)[C@H](N)[C@H]3O)[C@H](N)C[C@@H]2N)[C@H](N)C[C@@H]1O

>  <qualitative label>
Condition not met

$$$$
>  <chem smiles>
CC[C@H]1OC(=O)C[C@@H](O)[C@H](C)[C@@H](O[C@@H]2O[C@H](C)C[C@H](N(C)C)[C@H]2O)[C@@H](CC=O)C[C@@H](C)C(=O)/C=C/[C@]2(C)O[C@H]2[C@@H]1C

>  <qualitative label>
Condition not met

$$$$

Exam item: decide whether the reported relative growth for COc1ccccc1S(=O)(=O)N(C)C[C@H]1OCc2cn(nn2)CCCC(=O)N([C@@H](C)CO)C[C@H]1C is at least 1.
Condition met

----------
Recorded relative growth values for a group of molecules are listed next.
tested on: Escherichia coli K-12 BW25113; assay: relative growth (OD600 normalised to plate interquartile mean) (fraction); higher = less growth inhibition, active = 0.2 or less; conditions: 50 µM; LB; incubation time: overnight (16-24 h)
Screen size: about 39,000 compounds; about 220 (0.56%) showed activity. Many of the other results were omitted from the sample, so actives are more common in it than they were.
The answer should be written as a number, with no unit following it.

Previously resolved entries follow.
>  <chem smiles>
C[C@H](CO)N1C[C@H](C)[C@H](CN(C)C(=O)Nc2cccc3ccccc23)Oc2ncc(C#Cc3ccccc3)cc2C1=O

>  <relative growth>
0.961

$$$$
>  <chem smiles>
Cc1ccc(S(=O)(=O)Nc2ccc3c(c2)C(=O)N([C@H](C)CO)C[C@@H](C)[C@@H](CN(C)C(=O)c2ccccc2)OCCCC[C@H](C)O3)cc1

>  <relative growth>
1.01

$$$$
>  <chem smiles>
O=C(C[C@@H]1CC[C@H](NC(=O)c2cnccn2)[C@@H](CO)O1)NCc1ccccc1F

>  <relative growth>
0.993

$$$$
>  <chem smiles>
C[C@H](CO)N1C[C@H](C)[C@@H](CN(C)CC2CCCCC2)Oc2ccc(NC(=O)CCN3CCOCC3)cc2C1=O

>  <relative growth>
0.981

$$$$
>  <chem smiles>
CN(C)C(=O)C[C@H]1C=C[C@H](NC(=O)C2CCOCC2)[C@H](CO)O1

>  <relative growth>
1.01

$$$$

Fill in the blank: the reported relative growth of C[C@H](CO)N1C[C@H](C)[C@H](CN(C)C(=O)c2cccc(F)c2)Oc2cc(-c3cccnc3)ccc2S1(=O)=O is ____.
1.03

Now give it for C[C@@H]1CN([C@H](C)CO)C(=O)c2cc(NC(=O)Nc3ccc(F)cc3)ccc2O[C@@H]1CN(C)S(=O)(=O)c1cn(C)cn1 too.
1.01

----------
test system: Escherichia coli K-12 BW25113; test: relative growth (OD600 normalised to plate interquartile mean) (fraction); higher = less growth inhibition, active = 0.2 or less; details: 50 µM; LB; incubation time: overnight (16-24 h)
Out of some 39,000 compounds screened, about 220 (0.56%) showed activity. The sample holds actives, similar compounds and a random draw of the others, so the mix is not that of the screen.
Lab note: assign the record to one of 1 (active), -1 (inactive)

Example entries begin here.
>  <compound>
COC(=O)C(=C1OC(=O)C(c2ccccc2)=C1O)c1ccccc1

>  <qualitative label>
-1

$$$$
>  <compound>
O=C(O)c1cn(C2CC2)c2cc(N3CCNCC3)c(F)cc2c1=O

>  <qualitative label>
1

$$$$
>  <compound>
N=c1sccn1CC(=O)O

>  <qualitative label>
-1

$$$$

Just curious, what result did C[C@H]1CN([C@@H](C)CO)C(=O)Cc2cc(NS(=O)(=O)c3ccccc3)ccc2O[C@@H]1CN(C)S(C)(=O)=O get here?
-1

Please give the result for CC1=C(C(=O)O)N2C(=O)C(NC(=O)C(N)c3ccccc3)C2SC1 (stereo not given) too.
-1

Proceed to N[C@@H](C(=O)N[C@@H]1C(=O)N2C(C(=O)O)=C(Cl)CS[C@H]12)c1ccccc1
1

Next: COC[C@H]1CN(C(=O)c2cccc(OC)c2)N1
-1

Then CC1=C(C(=O)O)N2C(=O)[C@@H](NC(=O)[C@@H](N)c3ccccc3)[C@H]2SC1 ?
-1

What about this compound? CC1=C(C(=O)O)N2C(=O)[C@H](NC(=O)[C@@H](N)c3ccccc3)[C@H]2SC1
-1

How about NC(C(=O)NC1C(=O)N2C(C(=O)O)=C(Cl)CSC12)c1ccccc1 (stereo not given) ?
1

----------
test system: Escherichia coli K-12 BW25113; test: relative growth (OD600 normalised to plate interquartile mean) (fraction); higher = less growth inhibition, active = 0.2 or less; settings: 50 µM; LB; incubation time: overnight (16-24 h);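 further: Wild-type cells incubated without shaking, value is the mean of two biological replicates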
Hit rate of the full screen: of about 39,000 compounds, about 220 (0.56%) showed activity. Shown is part of a subset that was picked to be rich in actives.
Kindly return Fulfilled if reported relative growth is no lower than 1; return Not fulfilled if it is lower.

Record excerpt, results attached:
>  <chem smiles>
CN(C)CCOC(c1ccccc1)c1ccccc1.Cn1c(=O)c2[nH]c(Cl)nc2n(C)c1=O

>  <qualitative label>
Not fulfilled

$$$$
>  <chem smiles>
CC1=C(C(=O)NCCCN2CCN(c3ccc(F)cc3)CC2)C2(CCN(Cc3ccccc3)CC2)OC1=O

>  <qualitative label>
Not fulfilled

$$$$
>  <chem smiles>
CCn1cc(C(=O)O)c(=O)c2cc(F)c(N3CCNCC3)cc21

>  <qualitative label>
Not fulfilled

$$$$
>  <chem smiles>
COCCc1nc2c([nH]1)c(=O)n(C)c(=O)n2C

>  <qualitative label>
Not fulfilled

$$$$
>  <chem smiles>
COc1ccc(CNC(=O)C[C@@H]2CC[C@H]3[C@@H](COc4ccc(NC(=O)C5CC5)cc4C(=O)N3C)O2)cc1

>  <qualitative label>
Fulfilled

$$$$

Entry C[C@@H]1CN([C@@H](C)CO)C(=O)Cc2cc(NC(=O)Nc3ccccc3)ccc2O[C@@H]1CN(C)Cc1ccc(Oc2ccccc2)cc1 : is its relative growth no less than 1?
Not fulfilled

Same lookup for C[C@@H]1CN([C@H](C)CO)C(=O)c2cc(NS(=O)(=O)c3ccc(F)cc3)ccc2O[C@H]1CN(C)S(=O)(=O)c1cn(C)cn1 , please.
Fulfilled

Now this one: OC[C@@H]1CN(CCN2CCOCC2)C[C@H](n2cnc3c(NC4CCC4)ncnc32)O1
Not fulfilled

Then CCn1cc(C(=O)O)c(=O)c2cc(F)c(N3CCN(C)CC3)cc21.CS(=O)(=O)O ?
Not fulfilled

One more molecule: CN1CCN(c2c(F)cc3c(=O)c(C(=O)O)cn(CCF)c3c2F)CC1
Not fulfilled

What about Cl.Cl.N=C(NCCCCCCNC(=N)NC(=N)Nc1ccc(Cl)cc1)NC(=N)Nc1ccc(Cl)cc1 ?
Not fulfilled

For O=C(Oc1ccc(Cl)cc1)c1sc2ccccc2c1Cl then?
Fulfilled

Same again, this time with CN1CCN(c2c(F)cc3c(=O)c(C(=O)O)cn4c3c2SCC4)CC1
Not fulfilled
